IC50 values for Focal adhesion kinase 1 (Homo sapiens, UniProt Q05397) compiled from several publications are listed below.
quantity-name: IC50 (nM)

a: COc1cc2nc(-c3ccc(C(F)(F)F)cc3)cc(OCCCNCC3CCCO3)c2cc1OC (stereo not drawn)
b: O=C(NCCCCCCO)c1ccccc1Nc1nc(Nc2ccc(CN3CCOCC3)cc2)ncc1Cl
c: COc1cc2nc(-c3ccc(C)cc3)cc(OCCCNC3CCCCC3)c2cc1OC
d: O=C(c1ccccc1Nc1nc(Nc2ccc(CN3CCOCC3)cc2)ncc1Cl)N1CCC(O)CC1
e: O=C(NCC(O)CO)c1ccccc1Nc1nc(Nc2ccc(CN3CCOCC3)cc2)ncc1Cl (stereo not drawn)
Sort ascending by IC50: all records listed above. Please list each label once, in the requested order.
a, c, e, d, b

P: COc1cc2nc(-c3ccc(C)cc3)cc(OCCCNC3CCN(C)CC3)c2cc1OC
Q: CN(c1ccccc1CNc1nc(Nc2ccc(N3CCN(CCCCCCC(=O)NCCNc4cccc5c4C(=O)N(C4CCC(=O)NC4=O)C5=O)CC3)cc2)ncc1C(F)(F)F)S(C)(=O)=O (stereo not drawn)
Of the two listed items, which has the higher IC50? First: P Second: Q Which one? Tell me its label.
P
(P: 172 nM, Q: 26.4 nM)

====

pIC50: −log10 of the molar value.
pIC50 values for Focal adhesion kinase 1 (Homo sapiens, UniProt Q05397) compiled from several publications are listed below.
quantity-name: pIC50

COc1cc2nc(-c3ccc(C)cc3)cc(OCCCNCC3CCCO3)c2cc1OC (centres unmarked) : 7.35
COc1cc2nc(-c3ccc(C(F)(F)F)cc3)cc(OCCCNC3CCCCC3)c2cc1OC : 6.84
COc1cc2nc(-c3ccc(C(F)(F)F)cc3)cc(OCCCn3ccnc3)c2cc1OC : 6.73
COc1cc2nc(-c3ccc(C)cc3)cc(OCCCN3CCN(C)CC3)c2cc1OC : 6.80

A: CC(O)CNC(=O)c1ccccc1Nc1nc(Nc2ccc(CN3CCOCC3)cc2)ncc1Cl (centres unmarked)
B: COc1cc2nc(-c3ccc(-c4ccco4)cc3)cc(OCCCN3CCN(C)CC3)c2cc1OC
C: COc1cc2nc(-c3ccc(C(F)(F)F)cc3)cc(OCCCNC3CCN(C)CC3)c2cc1OC
D: COc1cc2nc(-c3ccc(Cl)cc3)cc(OCCCNC3CCCCC3)c2cc1OC
With regard to pIC50, arrange the entries in ascending order, please. Please list each label once, in the requested order.
B, D, A, C

P: CN(c1ccccc1CNc1nc(Nc2ccc(N3CCN(CCCCCC(=O)Nc4cccc5c4C(=O)N(C4CCC(=O)NC4=O)C5=O)CC3)cc2)ncc1C(F)(F)F)S(C)(=O)=O (centres unmarked)
Q: O=C(NCCO)c1ccccc1Nc1nc(Nc2ccc(CN3CCOCC3)cc2)ncc1Cl
Would you kindly point out which of P and Q has the smaller pIC50 figure? Which one? Tell me its label.
Q
(Q: 7.33, P: 7.61)
